SYSTEM: Trace amine-associated receptor 1 (Homo sapiens) (UniProt Q96RJ0)
Sequence (Q96RJ0 whole entry, looked up): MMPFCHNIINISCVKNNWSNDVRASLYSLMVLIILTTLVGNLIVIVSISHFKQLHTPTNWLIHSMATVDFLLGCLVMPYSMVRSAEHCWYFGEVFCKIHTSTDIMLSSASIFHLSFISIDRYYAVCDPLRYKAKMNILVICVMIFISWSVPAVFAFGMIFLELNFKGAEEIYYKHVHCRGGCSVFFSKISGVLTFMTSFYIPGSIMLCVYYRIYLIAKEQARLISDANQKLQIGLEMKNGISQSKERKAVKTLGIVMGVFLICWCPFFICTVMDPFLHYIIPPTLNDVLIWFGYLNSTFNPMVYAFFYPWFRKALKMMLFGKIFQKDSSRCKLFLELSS
TEST_PROTOCOL: activators of TAAR1 calcium mobilization – Fluo-8 calcium fluorescence, CHO RD-HGA16 cells, primary screen (AID 624467)
MEASUREMENT_CONDITIONS: CHO RD-HGA16 TAAR1, Fluo-8 calcium fluorescence; at 3 µM; vehicle wells 0%, saturating PEA agonist 100%
Among all 360,000 compounds or so, about 3,600 (1%) were called active.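 The calls were made as follows: active = activation above the mean activation of all test compounds in the run plus 3 SD (cut at about 38% in these data); inactive = the rest.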 What follows is part of a selection rich in actives, with near analogues and random picks from the rest.
Respond with a class label; see active, inactive

# count of solved cases: 4
CCCCNc1cccc2c1S(=O)(=O)N[C@@H](C)CO2    inactive
O=C(NCc1ccccc1)[C@H]1CCCN1C(=O)[C@H]1CCCN1C(=O)c1cc(F)cc(F)c1    inactive
COc1cccc(CN(C)C(=O)CC[C@H]2O[C@@H](n3cnc4c(NC(=O)c5ccccc5)ncnc43)[C@H](O)[C@@H]2O)c1    inactive
COCCCN(C(=O)CSCc1ccc(C)cc1)c1c(N)n(Cc2ccccc2)c(=O)[nH]c1=O    inactive

Moving on to the next compound.
Could you kindly confirm the outcome this assay logged for O=C(/C=C/[C@H]1O[C@@H](n2cnc3c(NC(=O)c4ccccc4)ncnc32)[C@H](O)[C@@H]1O)NCc1ccccc1 ? active

----------
Listed compounds paired with reported activation
SYSTEM: Trace amine-associated receptor 1 (Homo sapiens)
TEST_PROTOCOL: activators of TAAR1 calcium mobilization – Fluo-8 calcium fluorescence, CHO RD-HGA16 cells, primary screen (AID 624467)
MEASUREMENT_CONDITIONS: CHO RD-HGA16 TAAR1, Fluo-8 calcium fluorescence; at 3 µM; stronger effect = higher value; vehicle wells 0%, saturating PEA agonist 100%
Hit rate of the full screen: of about 360,000 compounds, about 3,600 (1%) were called active. For the sample, actives were picked, then their nearest neighbours and some compounds at random.

Example results:
Cc1c(CN2CCCCC2)c(O)n(CCO)c(=O)c1C#N    11.5% (inactive)
CN(C(=O)CN1C(=O)NC(C)(CCc2ccccc2)C1=O)c1ccccc1 (stereo not given)    1.03% (inactive)
CC(C)C(=O)Nc1nnc(SCC(=O)N2C(C)CCCC2C)s1 (stereo not given)    2.6% (inactive)
COc1ccc2c(c1)SC(C)CC2=O (stereo not given)    5.89% (inactive)
CCCCCCn1c(CN2CCCC(C)C2)nc2c1c(=O)n(C)c(=O)n2C (stereo not given)    0.08% (inactive)

Find the measured activation of CC1CCN(c2c(NCc3ccc(C(=O)NCc4ccccc4)cc3)c(=O)c2=O)CC1 with Trace amine-associated receptor 1 (Homo sapiens) as test system. 0.05% (inactive)

Find the measured activation of Cc1ccc2nc(-c3ccc(CN4CCC(n5cc(-c6ccccc6)[nH]c5=O)CC4)cc3)c(-c3ccccc3)nc2c1 with Trace amine-associated receptor 1 (Homo sapiens) as test system. 1.53% (inactive)

Find the measured activation of CN(C)c1ccc(/C=C2\NC(=S)N(Cc3ccccc3)C2=O)cc1 with Trace amine-associated receptor 1 (Homo sapiens) as test system. 81.4% (active)

Find the measured activation of CC1CCCN(c2ccc(C(=O)NCCc3ccccc3)cn2)C1 (stereo not given) with Trace amine-associated receptor 1 (Homo sapiens) as test system. 41.2% (active)

Find the measured activation of Cc1ccc(NC(=O)CN(C)C(=O)c2ccc(Cl)c(S(=O)(=O)NCc3ccco3)c2)cc1 with Trace amine-associated receptor 1 (Homo sapiens) as test system. 1.71% (inactive)
